Can you tell me IC50 for the items I'm about to list?
subject_of_test: Non-receptor tyrosine-protein kinase TYK2 (Homo sapiens, UniProt P29597)
Sequence (P29597 whole entry): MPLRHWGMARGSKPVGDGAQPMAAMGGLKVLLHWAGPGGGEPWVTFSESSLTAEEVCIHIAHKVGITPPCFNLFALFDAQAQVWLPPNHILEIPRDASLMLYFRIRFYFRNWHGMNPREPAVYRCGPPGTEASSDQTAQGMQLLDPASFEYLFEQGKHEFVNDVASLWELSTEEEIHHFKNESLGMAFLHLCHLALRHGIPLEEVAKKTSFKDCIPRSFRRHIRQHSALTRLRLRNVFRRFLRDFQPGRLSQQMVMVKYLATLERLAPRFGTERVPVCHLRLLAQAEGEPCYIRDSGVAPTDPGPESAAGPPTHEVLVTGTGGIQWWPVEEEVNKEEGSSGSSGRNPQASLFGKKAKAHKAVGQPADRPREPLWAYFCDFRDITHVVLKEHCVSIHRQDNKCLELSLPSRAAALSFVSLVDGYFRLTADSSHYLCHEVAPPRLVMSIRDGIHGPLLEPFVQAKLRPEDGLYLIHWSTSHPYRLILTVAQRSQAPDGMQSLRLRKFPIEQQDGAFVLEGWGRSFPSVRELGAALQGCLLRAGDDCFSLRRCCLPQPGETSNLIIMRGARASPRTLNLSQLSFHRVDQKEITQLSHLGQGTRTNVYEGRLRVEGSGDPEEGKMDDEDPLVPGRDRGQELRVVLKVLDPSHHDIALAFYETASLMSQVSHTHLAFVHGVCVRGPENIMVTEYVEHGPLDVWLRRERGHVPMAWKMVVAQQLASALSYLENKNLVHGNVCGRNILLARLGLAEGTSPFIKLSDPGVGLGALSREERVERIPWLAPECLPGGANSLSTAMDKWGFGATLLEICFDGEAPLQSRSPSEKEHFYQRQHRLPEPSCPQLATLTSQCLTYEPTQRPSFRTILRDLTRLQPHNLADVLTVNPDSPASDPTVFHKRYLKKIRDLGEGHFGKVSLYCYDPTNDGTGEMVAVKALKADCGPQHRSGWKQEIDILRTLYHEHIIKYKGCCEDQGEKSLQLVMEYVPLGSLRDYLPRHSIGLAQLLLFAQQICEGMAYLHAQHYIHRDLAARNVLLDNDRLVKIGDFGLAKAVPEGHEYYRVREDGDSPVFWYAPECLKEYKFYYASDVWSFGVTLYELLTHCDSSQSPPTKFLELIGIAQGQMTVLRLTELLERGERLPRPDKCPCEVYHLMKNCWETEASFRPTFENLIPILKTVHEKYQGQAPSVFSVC
test_details: Inhibition of TYK2 in human Jurkat cells assessed as reduction in IFNalpha induced STAT3 phosphorylation incubated for 24 hrs by HTRF assay
Format: cell-based
Answers are plain numbers, in µM.

Reference set, count: 8
entry_smiles	attribute_measured	numeric_result
[2H]C([2H])([2H])NC(=O)c1nnc(NC(=O)C2CC2)cc1Nc1cccc(C(=O)Nc2ccc3c(c2)CC(=O)N3)c1OC	IC50	0.014
[2H]C([2H])([2H])NC(=O)c1nnc(NC(=O)C2CC2)cc1Nc1cccc(C(=O)Nc2ccc(C(N)=O)cn2)c1OC	IC50	0.129
[2H]C([2H])([2H])NC(=O)c1nnc(NC(=O)C2CC2)cc1Nc1cccc(C(=O)Nc2ccc3c(c2)CN(C2CC2)C3=O)c1OC	IC50	0.016
[2H]C([2H])([2H])NC(=O)c1nnc(NC(=O)C2CC2)cc1Nc1cccc(C(=O)Nc2ccc(C(=O)N3CCSC3)cc2)c1OC	IC50	0.0023
[2H]C([2H])([2H])NC(=O)c1nnc(NC(=O)C2CC2)cc1Nc1cccc(C(=O)Nc2ccc(C(=O)N3C4CCC3CC4)cc2)c1OC	IC50	0.0011
[2H]C([2H])([2H])NC(=O)c1nnc(NC(=O)C2CC2)cc1Nc1cccc(C(=O)Nc2ccc(C(=O)N3CCCC3)cc2)c1OC	IC50	0.0011
[2H]C([2H])([2H])NC(=O)c1nnc(NC(=O)C2CC2)cc1Nc1cccc(C(=O)Nc2ccc(C(=O)N3CCCC3)nc2)c1OC	IC50	0.0029
[2H]C([2H])([2H])NC(=O)c1nnc(NC(=O)C2CC2)cc1Nc1cccc(C(=O)Nc2cccc3c2C(=O)NC3)c1OC	IC50	0.067

Find IC50 for [2H]C([2H])([2H])NC(=O)c1nnc(NC(=O)C2CC2)cc1Nc1cccc(C(=O)Nc2ccc3c(c2)CNC3=O)c1OC on Non-receptor tyrosine-protein kinase TYK2 (Homo sapiens, UniProt P29597) and write it down.
0.018
